Taken from patent US10131652B2.

Test system: ragweed (common ragweed, Ambrosia elatior)
ASSAY REMARKS: Test B pre-/postemergence plant response
Type: in vivo
CONDITION DETAILS: Postemergence, 31 g ai/ha; 0 to 100 scale (0 no effect, 100 complete control)
Here, each record is paired with measured Plant response rating, Ragweed data.
ENDPOINT LABEL: Plant response rating, Ragweed

SUBSTANCE SMILES: Clc1cnc(Oc2ccccc2-c2cc(Cl)cnn2)nc1
ENDPOINT LABEL: Plant response rating, Ragweed
MEASURED RESULT: 0
//
SUBSTANCE SMILES: Cn1nc(-c2c(Br)cccc2Oc2ncc(Cl)cn2)cc1C(F)(F)F
ENDPOINT LABEL: Plant response rating, Ragweed
MEASURED RESULT: 0
//
SUBSTANCE SMILES: COc1cnc(Oc2ccccc2-c2cc(C(F)F)no2)nc1
ENDPOINT LABEL: Plant response rating, Ragweed
MEASURED RESULT: 10
//
SUBSTANCE SMILES: FC(F)(F)COc1cc(-c2ccccc2Oc2ncc(Cl)cn2)ncn1
ENDPOINT LABEL: Plant response rating, Ragweed
MEASURED RESULT: 10
//
SUBSTANCE SMILES: C=C(C)c1cc(-c2ccccc2Oc2ncc(Cl)cn2)on1
ENDPOINT LABEL: Plant response rating, Ragweed
MEASURED RESULT: 10

###

System: green foxtail (Setaria viridis)
ASSAY REMARKS: Test F pre-/postemergence plant response
Assay type: in vivo
CONDITION DETAILS: Setaria viridis, pre-emergence; Preemergence; scale 0 to 100; read-out: Plant response rating, Foxtail, Green
Here, each record is paired with measured pest or weed control at 62 g/ha data.

COMPOUND: FC(F)c1cc(-c2ccccc2Oc2ncc(Br)cn2)no1 [Compound 62]
pest or weed control at 62 g/ha: 40%
--
COMPOUND: Fc1cccc(Oc2ncc(Cl)cn2)c1-c1cc(C(F)F)on1 [Compound 55]
pest or weed control at 62 g/ha: 70%
--
COMPOUND: FC(F)(F)c1cc(-c2ccccc2Oc2ncc(Cl)cn2)no1 [Compound 200]
pest or weed control at 62 g/ha: 100%
--
COMPOUND: Fc1cccc(Oc2ncc(Br)cn2)c1-c1cc(C(F)F)no1 [Compound 145]
pest or weed control at 62 g/ha: 100%
--
COMPOUND: Fc1cccc(Oc2ncc(Cl)cn2)c1-c1cc(C(F)(F)F)on1 [Compound 168]
pest or weed control at 62 g/ha: 100%

###

System: blackgrass (Alopecurus myosuroides)
ASSAY REMARKS: Test E pre-/postemergence plant response
Type: in vivo
CONDITION DETAILS: pre-emergence, 125 g ai/ha, Preemergence, scale 0 to 100, read-out: Plant response rating, Blackgrass
Here, each record is paired with measured pest or weed control at 125 g/ha data.

SUBSTANCE SMILES: Fc1cccc(Oc2ncc(Cl)cn2)c1-c1cc(C(F)F)on1
SYSTEM UNDER TEST: blackgrass (Alopecurus myosuroides)
UNITS TEXT: %
pest or weed control at 125 g/ha: 100

SUBSTANCE SMILES: Fc1cccc(Oc2ncc(Cl)cn2)c1-c1cc(C(F)(F)F)on1
SYSTEM UNDER TEST: blackgrass (Alopecurus myosuroides)
UNITS TEXT: %
pest or weed control at 125 g/ha: 100

SUBSTANCE SMILES: FC(F)c1cc(-c2ccccc2Oc2ncc(Cl)cn2)no1
SYSTEM UNDER TEST: blackgrass (Alopecurus myosuroides)
UNITS TEXT: %
pest or weed control at 125 g/ha: 95

###

Tested on: oilseed rape (Brassica napus)
ASSAY REMARKS: Test D pre-/postemergence plant response
Type: in vivo
CONDITION DETAILS: Postemergence, 31 g ai/ha; scale 0 to 100 (0 no effect, 100 complete control)

COMPOUND: CC(F)(F)c1cc(-c2ccccc2Oc2ncc(Br)cn2)no1 [Compound 149]
Oilseed Rape plant response rating: 30
//
COMPOUND: Fc1cccc(Oc2ncc(Br)cn2)c1-c1cc(C(F)F)on1 [Compound 118]
Oilseed Rape plant response rating: 30
//
COMPOUND: Fc1cccc(Oc2ncc(Cl)cn2)c1-c1cc(C2CC2)on1 [Compound 130]
Oilseed Rape plant response rating: 80
//
COMPOUND: Clc1cnc(Oc2ccccc2-c2ccon2)nc1 [Compound 185]
Oilseed Rape plant response rating: 0

###

Test system: small-flower umbrella sedge (Cyperus difformis)
ASSAY REMARKS: Test C flooded paddy test plant response
Format: in vivo
CONDITION DETAILS: Cyperus difformis; Flood, 250 g ai/ha; scale of 0 to 100 where 0 is no effect and 100 is complete control; 13 to 15 days; read-out: Sedge, Umbrella plant response rating
Here, each record is paired with measured pest or weed control at 250 g/ha data.

SUBSTANCE SMILES: FC(F)(F)c1cc(-c2ccccc2Oc2ncc(Cl)cn2)no1
pest or weed control at 250 g/ha: 100%

SUBSTANCE SMILES: Clc1cnc(Oc2ccccc2-c2cc(Br)no2)nc1
pest or weed control at 250 g/ha: 0%

SUBSTANCE SMILES: FCc1cc(-c2ccccc2Oc2ncc(Cl)cn2)no1
pest or weed control at 250 g/ha: 85%

SUBSTANCE SMILES: FC(F)c1cc(-c2ccccc2Oc2ncc(Cl)cn2)on1
pest or weed control at 250 g/ha: 75%

SUBSTANCE SMILES: Fc1cccc(Oc2ncc(Cl)cn2)c1-c1cc(C(F)F)no1
pest or weed control at 250 g/ha: 85%

SUBSTANCE SMILES: Clc1ccc(-c2c(Cl)cccc2Oc2ncc(Cl)cn2)nc1
pest or weed control at 250 g/ha: 40%

###

System: giant foxtail (Setaria faberii)
ASSAY REMARKS: Test B pre-/postemergence plant response
Assay type: in vivo
CONDITION DETAILS: Postemergence, 1000 g ai/ha; 0 to 100 scale (0 no effect, 100 complete control)

SUBSTANCE SMILES: Clc1cnc(Oc2ccccc2-c2cnco2)nc1
Plant response rating, Foxtail, Giant: 20
//
SUBSTANCE SMILES: Clc1cnc(Oc2ccccc2-c2cncs2)nc1
Plant response rating, Foxtail, Giant: 20
//
SUBSTANCE SMILES: Clc1cnc(Oc2ccccc2-c2ncc(Cl)cn2)nc1
Plant response rating, Foxtail, Giant: 20

###

Here, each record is paired with measured Plant response rating (scale 0 to 100), Galium data.
System: galium (catchweed bedstraw, Galium aparine)
ASSAY REMARKS: Test D pre-/postemergence plant response
Type: in vivo
CONDITION DETAILS: Postemergence, 16 g ai/ha
ENDPOINT LABEL: Plant response rating (scale 0 to 100), Galium

SUBSTANCE SMILES: FC(F)c1cc(-c2ccccc2Oc2ncc(Br)cn2)on1
MEASURED RESULT: 60
//
SUBSTANCE SMILES: CC(F)(F)c1cc(-c2ccccc2Oc2ncc(Cl)cn2)on1
MEASURED RESULT: 75
//
SUBSTANCE SMILES: FCc1cc(-c2ccccc2Oc2ncc(Cl)cn2)on1
MEASURED RESULT: 40
//
SUBSTANCE SMILES: FC(Cl)(Cl)c1cc(-c2ccccc2Oc2ncc(Cl)cn2)no1
MEASURED RESULT: 70
//
SUBSTANCE SMILES: FCc1cc(-c2c(Br)cccc2Oc2ncc(Cl)cn2)no1
MEASURED RESULT: 40

###

Test system: velvetleaf (Abutilon theophrasti)
ASSAY REMARKS: Test B pre-/postemergence plant response
Type: in vivo
CONDITION DETAILS: 125 g ai/ha, postemergence; 0 to 100 scale, 0 no effect, 100 complete control
Here, each record is paired with measured Plant response rating, Velvetleaf data.

SUBSTANCE SMILES: O=[N+]([O-])c1cc(Cl)cnc1-c1ccccc1Oc1ncc(Cl)cn1
Plant response rating, Velvetleaf: 0
--
SUBSTANCE SMILES: Clc1ccc(-c2c(Br)cccc2Oc2ncc(Cl)cn2)nc1
Plant response rating, Velvetleaf: 40
--
SUBSTANCE SMILES: Clc1cccc(-c2ccccc2Oc2ncc(Br)cn2)n1
Plant response rating, Velvetleaf: 0
--
SUBSTANCE SMILES: Cc1ccc(Oc2ncc(Cl)cn2)c(-c2cccc(OC(F)(F)F)c2)c1
Plant response rating, Velvetleaf: 30
--
SUBSTANCE SMILES: Clc1cnc(Oc2ccccc2-c2nccc(Cl)n2)nc1
Plant response rating, Velvetleaf: 0

###

System: kochia (Kochia scoparia)
ASSAY REMARKS: Test D postemergence plant response
Format: in vivo
CONDITION DETAILS: 62 g ai/ha, scale 0 to 100, 0 no effect, 100 complete control
Here, each record is paired with measured Plant response rating, Kochia data.

SUBSTANCE SMILES: CC(F)(F)c1cc(-c2ccccc2Oc2ncc(Br)cn2)no1
SYSTEM UNDER TEST: kochia (Kochia scoparia)
Plant response rating, Kochia: 100
//
SUBSTANCE SMILES: FC(F)(Cl)c1cc(-c2ccccc2Oc2ncc(Cl)cn2)no1
SYSTEM UNDER TEST: kochia (Kochia scoparia)
Plant response rating, Kochia: 100
//
SUBSTANCE SMILES: FC(F)c1cc(-c2c(Cl)cccc2Oc2ncc(Cl)cn2)on1
SYSTEM UNDER TEST: kochia (Kochia scoparia)
Plant response rating, Kochia: 100
//
SUBSTANCE SMILES: FCc1cc(-c2c(Br)cccc2Oc2ncc(Cl)cn2)no1
SYSTEM UNDER TEST: kochia (Kochia scoparia)
Plant response rating, Kochia: 85
